type: in vivo, human; conditions: human, plasma, oral, 200 mg
Readout Label: AUC(0-inf) (ng·h/mL)
Kindly answer with a numeric value in ng·h/mL, unit omitted.

Record request: AUC(0-inf) value, item O=C(Nc1nc2cccc(-c3ccc(CN4CCS(=O)(=O)CC4)cc3)n2n1)C1CC1
6960

###

test: Study 3: metformin pharmacokinetics alone or with filgotinib in healthy subjects; conditions: human, plasma, oral, 850 mg
Readout Label: AUC(0-inf) (ng·h/mL)
Kindly answer with a numeric value in ng·h/mL, unit omitted.

Record request: AUC(0-inf) value, item CN(C)C(=N)N=C(N)N
8720

###

format: in vivo, human; conditions: human, plasma, oral, 100 mg
Readout Label: AUC(0-inf)

Record request: AUC(0-inf) value, item O=C(Nc1nc2cccc(-c3ccc(CN4CCS(=O)(=O)CC4)cc3)n2n1)C1CC1 [Filgotinib]
2190 ng·h/mL

###

assay type: in vivo, human; conditions: human, plasma, oral, 200 mg
Readout Label: Cmax (ng/mL)
Kindly answer with a numeric value in ng/mL, unit omitted.

Record request: Cmax value, item O=C(Nc1nc2cccc(-c3ccc(CN4CCS(=O)(=O)CC4)cc3)n2n1)C1CC1
2190

###

assay type: in vivo, human; conditions: human, plasma, oral
Readout Label: half-life (h)
Kindly answer with a numeric value in h, unit omitted.

Record request: half-life value, item O=C(Nc1nc2cccc(-c3ccc(CN4CCS(=O)(=O)CC4)cc3)n2n1)C1CC1
7.7

###

assay type: in vivo, human; conditions: human, plasma, oral, 100 mg
Readout Label: half-life (h)
Kindly answer with a numeric value in h, unit omitted.

Record request: half-life value, item O=C(Nc1nc2cccc(-c3ccc(CN4CCS(=O)(=O)CC4)cc3)n2n1)C1CC1 [Filgotinib]
7.4
